Reported pKi values, Human 5-HT4R (Homo sapiens).
Convention used: pKi is expressed as -log10 of the molar concentration.

COc1cc(N)c(Cl)cc1C(=O)CCC1CCN(Cc2cccc(C)c2)CC1.O=C(O)/C=C/C(=O)O; 6.68

Could you now look at the following compound, please?
### Prompt Hello, I am looking for reported pKi with Human 5-HT4R (Homo sapiens) for COc1cc(N)c(Cl)cc1C(=O)CCC1CCN(Cc2cccc(C)c2)CC1 . Could you help?
### Response 6.77

* * *

Parameter: inhibition. Scope: all listed entries.
# Target desc: Human 5-HT4R (Homo sapiens)
# Construct: purchased Eurofins HTS110M
# Assay overview: [3H]-GR113808 competition binding on 5-HT4(b) membrane preparations
# Reported conditions: read-out: (h)5-HT4R % inhibition at 10^−6M, 10^−6M; 0.2 nM [3H]-GR113808
Note: unit % is implicit; provide only the numeric part.

COc1cc(N)c(Cl)cc1C(=O)CCC1CCN(Cc2ccccc2OCc2ccccc2)CC1 [5g]; 70
COc1cc(N)c(Cl)cc1C(=O)CCC1CCN(Cc2cccc(F)c2)CC1 [5j]; 98

### Prompt Any idea what its inhibition is? The molecule is COc1cc(N)c(Cl)cc1C(=O)CCC1CCN(Cc2cc([N+](=O)[O-])ccc2F)CC1 [5s]
### Response 62

### Prompt Any idea what its inhibition is? The molecule is COc1cc(N)c(Cl)cc1C(=O)CCC1CCN(Cc2ccccc2)CC1 [5a]
### Response 102

### Prompt Any idea what its inhibition is? The molecule is COc1cc(N)c(Cl)cc1C(=O)CCC1CCN(Cc2cccc(N)c2)CC1 [5m]
### Response 100

* * *

# Target desc: Human 5-HT4R (Homo sapiens, UniProt Q13639)
# Construct: purchased Eurofins HTS110M
# Sequence (Q13639 whole entry): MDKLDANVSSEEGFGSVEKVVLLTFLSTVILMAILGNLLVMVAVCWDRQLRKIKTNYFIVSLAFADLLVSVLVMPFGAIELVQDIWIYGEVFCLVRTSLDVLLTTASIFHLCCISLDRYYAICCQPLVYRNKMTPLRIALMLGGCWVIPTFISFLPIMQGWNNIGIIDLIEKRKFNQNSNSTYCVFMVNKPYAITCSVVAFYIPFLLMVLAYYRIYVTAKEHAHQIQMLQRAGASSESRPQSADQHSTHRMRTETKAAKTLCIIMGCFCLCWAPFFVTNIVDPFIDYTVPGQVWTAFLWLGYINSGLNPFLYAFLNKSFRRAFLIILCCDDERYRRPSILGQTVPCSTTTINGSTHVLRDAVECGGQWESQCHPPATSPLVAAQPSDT
# Assay overview: [3H]-GR113808 competition binding on 5-HT4(b) membrane preparations
# Reported conditions: read-out: (h)5-HT4R % inhibition at 10^−8M, 10^−8M; 0.2 nM [3H]-GR113808
Decide by inhibition: equal to or exceeding 9% means T, less means F.

Please review the entries below; each comes with its answer.
COc1cc(N)c(Cl)cc1C(=O)CCC1CCN(Cc2cccc(F)c2)CC1; T
COc1cc(N)c(Cl)cc1C(=O)CCC1CCN(Cc2cccc([N+](=O)[O-])c2)CC1; F
COc1cc(N)c(Cl)cc1C(=O)CCC1CCN(Cc2ccc(C)cc2)CC1; T
COc1cc(N)c(Cl)cc1C(=O)CCC1CCN(Cc2cc([N+](=O)[O-])ccc2F)CC1; F
COc1cc(N)c(Cl)cc1C(=O)CCC1CCN(Cc2ccccc2)CC1; T

### Prompt Please tell me: is the molecule COc1cc(N)c(Cl)cc1C(=O)CCC1CCN(Cc2ccccc2I)CC1 at or over 9% in terms of inhibition?
### Response F

### Prompt Please tell me: is the molecule COc1cc(N)c(Cl)cc1C(=O)CCC1CCN(Cc2cc(NC(C)=O)ccc2Br)CC1 at or over 9% in terms of inhibition?
### Response F

* * *

# Target desc: human 5-HT6 receptors (Homo sapiens)
# Construct: purchased Perkin Elmer RBHS6M; host or cells: HEK-293 cells, transient expression (membranes)
# Assay overview: [3H]-LSD competition binding on membranes of HEK-293 cells expressing human 5-HT6 receptors
# Reported conditions: read-out: (h)5-HT6R % inhibition at 10^−8M, 10^−8M; 2.5 nM [3H]-LSD
Parameter: inhibition. Scope: all listed entries.
Note: unit % is implicit; provide only the numeric part.

Here is how some compounds turned out for inhibition.
COc1cc(N)c(Cl)cc1C(=O)CCC1CCN(Cc2ccc(C)cc2)CC1; 21
COc1cc(N)c(Cl)cc1C(=O)CCC1CCN(Cc2ccccc2I)CC1; 25
COc1cc(N)c(Cl)cc1C(=O)CCC1CCN(Cc2ccccc2Cl)CC1; 27
COc1cc(N)c(Cl)cc1C(=O)CCC1CCN(Cc2ccc(F)cc2)CC1; 13
COc1cc(N)c(Cl)cc1C(=O)CCC1CCN(Cc2cccc(F)c2)CC1; 9
COc1cc(N)c(Cl)cc1C(=O)CCC1CCN(Cc2cccc([N+](=O)[O-])c2)CC1; 0
COc1cc(N)c(Cl)cc1C(=O)CCC1CCN(Cc2ccccc2O)CC1; 0
COc1cc(N)c(Cl)cc1C(=O)CCC1CCN(Cc2cc([N+](=O)[O-])ccc2F)CC1; 5

### Prompt Any idea what its inhibition is? The compound is COc1cc(N)c(Cl)cc1C(=O)CCC1CCN(Cc2ccccc2)CC1
### Response 0

### Prompt Any idea what its inhibition is? The compound is COc1cc(N)c(Cl)cc1C(=O)CCC1CCN(Cc2cccc(N)c2)CC1
### Response 31

### Prompt Any idea what its inhibition is? The compound is Fc1ccc2c(CCNCc3cccc(OCC(F)(F)C(F)F)c3)c[nH]c2c1 [compound 2, idalopirdine, reference compound]
### Response 88

* * *

Parameter: inhibition. Scope: all listed entries.
# Target desc: Human 5-HT4R (Homo sapiens)
# Construct: purchased Eurofins HTS110M
# Assay overview: [3H]-GR113808 competition binding on 5-HT4(b) membrane preparations
# Reported conditions: read-out: (h)5-HT4R % inhibition at 10^−6M, 10^−6M; 0.2 nM [3H]-GR113808
Note: unit % is implicit; provide only the numeric part.

COc1cc(N)c(Cl)cc1C(=O)CCC1CCN(Cc2ccc(O)cc2)CC1; 100
COc1cc(N)c(Cl)cc1C(=O)CCC1CCN(Cc2ccccc2F)CC1; 94
COc1cc(N)c(Cl)cc1C(=O)CCC1CCN(Cc2ccccc2Br)CC1; 96
COc1cc(N)c(Cl)cc1C(=O)CCC1CCN(Cc2cccc([N+](=O)[O-])c2)CC1; 90
COc1cc(N)c(Cl)cc1C(=O)CCC1CCN(Cc2cccc(C)c2)CC1; 98

### Prompt Any idea what its inhibition is? The compound is COc1cc(N)c(Cl)cc1C(=O)CCC1CCN(Cc2cccc(Br)c2)CC1
### Response 94

### Prompt Any idea what its inhibition is? The compound is COc1cc(N)c(Cl)cc1C(=O)CCC1CCN(Cc2ccc(C)cc2)CC1
### Response 100

### Prompt Any idea what its inhibition is? The compound is COc1cc(N)c(Cl)cc1C(=O)CCC1CCN(Cc2ccccc2O)CC1
### Response 98

### Prompt Any idea what its inhibition is? The compound is COc1cc(N)c(Cl)cc1C(=O)CCC1CCN(Cc2cc(N)ccc2F)CC1
### Response 98

### Prompt Any idea what its inhibition is? The compound is COc1cccc(CN2CCC(CCC(=O)c3cc(Cl)c(N)cc3OC)CC2)c1
### Response 94

### Prompt Any idea what its inhibition is? The compound is COc1cc(N)c(Cl)cc1C(=O)CCC1CCN(Cc2ccccc2I)CC1
### Response 96

* * *

# Target desc: (h)5-HT6R (Homo sapiens, UniProt P50406)
# Construct: HA
# Sequence (P50406 whole entry): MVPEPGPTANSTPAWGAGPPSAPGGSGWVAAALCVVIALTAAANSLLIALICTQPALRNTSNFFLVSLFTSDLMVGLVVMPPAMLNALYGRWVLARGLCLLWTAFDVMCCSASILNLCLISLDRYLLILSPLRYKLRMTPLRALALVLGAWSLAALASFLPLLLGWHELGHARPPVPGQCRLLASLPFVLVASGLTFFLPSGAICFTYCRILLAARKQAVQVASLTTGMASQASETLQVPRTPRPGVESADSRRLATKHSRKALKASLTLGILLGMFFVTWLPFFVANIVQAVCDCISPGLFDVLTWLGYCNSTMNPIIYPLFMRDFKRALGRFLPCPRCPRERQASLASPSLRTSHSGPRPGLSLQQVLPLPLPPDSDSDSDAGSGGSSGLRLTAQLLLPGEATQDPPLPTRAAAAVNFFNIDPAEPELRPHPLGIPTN
# Assay overview: Blockade of the 5-HT6R-induced cAMP production in transfected COS-7 cells
# Experimental: COS-7 cells were grown in Dulbecco’s modified Eagle medium (DMEM) supplemented with 10% dialyzed fetal calf serum (dFCS) and antibiotics. […] Quantification of cAMP production was performed by HTRF® by using the cAMP Dynamic kit (Cisbio Bioassays) according to the manufacturer’s instructions.
Test readout: pIC50
Convention used: pIC50 is expressed as -log10 of the molar concentration.

### Prompt Any idea what its pIC50 is? The compound is COc1cc(N)c(Cl)cc1C(=O)CCC1CCN(Cc2cccc(C)c2)CC1.O=C(O)/C=C/C(=O)O
### Response 5.00

* * *

Parameter: inhibition. Scope: all listed entries.
# Target desc: human 5-HT6 receptors (Homo sapiens)
# Construct: purchased Perkin Elmer RBHS6M; host or cells: HEK-293 cells, transient expression (membranes)
# Assay overview: [3H]-LSD competition binding on membranes of HEK-293 cells expressing human 5-HT6 receptors
# Reported conditions: read-out: (h)5-HT6R % inhibition at 10^−6M, 10^−6M; 2.5 nM [3H]-LSD
Number first, unit second: that is the form wanted.

Here is how some molecules turned out for inhibition.
COc1cc(N)c(Cl)cc1C(=O)CCC1CCN(Cc2cccc(Br)c2)CC1 [5i]; 77%
COc1cccc(CN2CCC(CCC(=O)c3cc(Cl)c(N)cc3OC)CC2)c1 [5l]; 78%
COc1cc(N)c(Cl)cc1C(=O)CCC1CCN(Cc2cc(N)ccc2F)CC1 [5t]; 65%
COc1cc(N)c(Cl)cc1C(=O)CCC1CCN(Cc2ccccc2O)CC1 [5h]; 24%

Could you now look at the following molecule, please?
### Prompt Any idea what its inhibition is? The molecule is COc1cc(N)c(Cl)cc1C(=O)CCC1CCN(Cc2ccccc2F)CC1 [5d]
### Response 68%
